Listing of recorded thermal shift delta Tm by entry.
test system: LOC_OS05G43570-cb004; assay: thermal shift delta Tm vs DMSO control; higher = stronger stabilization (binding); conditions: 12.5 µM; protein concentration 2 µM;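 further: purified Escherichia coli-expressed rice kinase domain construct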
readoutLabel: thermal shift delta Tm (°C)

compound=O=C1CCc2c(Oc3ccc4c(c3)[C@@H]3[C@H](O4)[C@H]3c3nc4cc(C(F)(F)F)ccc4[nH]3)ccnc2N1 unitslabel=°C measuredvalue=1.09
compound=O=C(NCc1ccccc1)c1csc(Nc2ccncn2)n1 unitslabel=°C measuredvalue=1.22
compound=O=C1Nc2ccc(I)cc2/C1=C/c1cc(Br)c(O)c(Br)c1 unitslabel=°C measuredvalue=0.73
compound="C=CC(=O)N1CCC(Oc2cc3c(Nc4ccc(Cl)c(Cl)c4F)ncnc3cc2OC)CC1 [Poziotinib (HM781-36B)]" unitslabel=°C measuredvalue=0.15
compound=COc1cc2ncnc(Nc3ccc(Oc4ccccc4)cc3C)c2cc1OC unitslabel=°C measuredvalue=-0.01
compound="O=c1cc(-c2ccccc2)oc2c(O)c(O)ccc12 [7,8-Dihydroxyflavone]" unitslabel=°C measuredvalue=1.47
compound=CN1CCN(Cc2ccc(NC(=O)Nc3ccc(Oc4ccnc(N)n4)cc3)cc2C(F)(F)F)CC1 unitslabel=°C measuredvalue=1.72
compound=CS(=O)(=O)c1cccc(CNc2nc(Nc3ccc4c(c3)CCC(=O)N4)ncc2C(F)(F)F)c1 unitslabel=°C measuredvalue=0.96
compound=CC(C)(CCCCCC(O)CCCCCC(C)(C)C(=O)O)C(=O)O unitslabel=°C measuredvalue=0.54
compound=O=C(/C=C/c1ccc2ccccc2n1)c1ccncc1 unitslabel=°C measuredvalue=0.37
compound=CC(C)[C@H](CO)Nc1nc(Nc2cccc(Cl)c2)c2ncn(C(C)C)c2n1 unitslabel=°C measuredvalue=0.79
compound="Cc1cccc(Nc2nc(NC3CCCCC3N)ncc2C(N)=O)c1 (centres undefined)" unitslabel=°C measuredvalue=0.63
compound="CC1(C)CNc2cc(NC(=O)c3cccnc3NCc3ccncc3)ccc21 [Motesanib Diphosphate (AMG-706)]" unitslabel=°C measuredvalue=0.21
compound=O=C(O)CCC(=O)Nc1ccc(Br)cn1 unitslabel=°C measuredvalue=0.76
compound=Cc1cc(N2CCOCC2)cc2[nH]c(-c3c(NC[C@@H](O)c4cccc(Cl)c4)cc[nH]c3=O)nc12 unitslabel=°C measuredvalue=0.65
compound=NC1(Cc2ccc(Cl)cc2)CCN(c2ncnc3[nH]ccc23)CC1 unitslabel=°C measuredvalue=0.72
compound=CN(c1ccccc1CNc1nc(Nc2ccc3c(c2)CC(=O)N3)ncc1C(F)(F)F)S(C)(=O)=O unitslabel=°C measuredvalue=0.97
compound=C#Cc1cccc(Nc2ncnc3cc(OCCOC)c(OCCOC)cc23)c1 unitslabel=°C measuredvalue=-0.04
compound=CN(C)CCOc1ccc(-c2nc(-c3ccncc3)c(-c3ccc4c(c3)CC/C4=N\O)[nH]2)cc1 unitslabel=°C measuredvalue=0.64

====

Parameter thermal shift delta Tm: see the listing below.
test system: LOC_OS01G01410-cb001; test: thermal shift delta Tm vs DMSO control; higher = stronger stabilization (binding); settings: 12.5 µM; protein concentration 2 µM
Where a name gives a salt, the structure may show the parent alone.
readoutLabel: thermal shift delta Tm (°C)

molecule="COc1cc2ncnc(Nc3cccc(Cl)c3)c2cc1OC [AG-1478 (Tyrphostin AG-1478)]" measuredvalue=1.49
molecule=CC(C)(C)c1cc(NC(=O)Nc2ccc(Oc3ccnc4[nH]c(=O)cnc34)cc2F)n(-c2ccccc2)n1 measuredvalue=-0.24
molecule=COc1ccc(-c2nc(N3CCOCC3)c3sc(CN(C)c4ncc(C(=O)NO)cn4)cc3n2)cn1 measuredvalue=0.62
molecule="FC(F)(F)c1ccc(CNc2ccc(Cc3c[nH]c4ncc(Cl)cc34)cn2)cn1 [Pexidartinib (PLX3397)]" measuredvalue=1.9
molecule="OC1CCC(Oc2cccc3cnc(Nc4ccc5nc[nH]c5c4)nc23)CC1 (stereo not drawn)" measuredvalue=5.55
molecule=C#Cc1cccc(Nc2ncnc3cc(OC)c(OCCCCCCC(=O)NO)cc23)c1 measuredvalue=0.66
molecule="CNC(=O)c1cc(Oc2ccc(NC(=O)Nc3ccc(Cl)c(C(F)(F)F)c3)cc2)ccn1 [Sorafenib Tosylate]" measuredvalue=2.14
molecule=CO[C@H]1CC[C@H](N2C(=O)CNc3ncc(-c4ccc(C(C)(C)O)nc4)nc32)CC1 measuredvalue=0.1
molecule="S=C(NCc1ccc2c(c1)OCO2)N1CCN(c2ncnc3c2oc2ccccc23)CC1 [Amuvatinib (MP-470)]" measuredvalue=0.66
molecule="COc1nccc(-c2c(-c3ccc(F)cc3)ncn2C2CCC(O)CC2)n1 (stereo not drawn)" measuredvalue=-0.16
molecule=COc1ccc(-c2ccc3c(N4CCOC[C@@H]4C)nc(N4CCOC[C@@H]4C)nc3n2)cc1CO measuredvalue=0.54
molecule="Cc1nc(Nc2ncc(C(=O)Nc3c(C)cccc3Cl)s2)cc(N2CCN(CCO)CC2)n1 [Dasatinib]" measuredvalue=1.38
molecule=CNS(=O)(=O)Nc1nccc(Cc2c(C)c3ccc(Oc4ncccn4)cc3oc2=O)c1F measuredvalue=0.15
molecule=CCn1c(C(=O)N(C2CC2)C2CC2)cc2c3c(ncn3C)c(Nc3cc(C)n(C)n3)nc21 measuredvalue=0.37
molecule="C[C@@H]1COC(Nc2ccc3ncnc(Nc4ccc(OCc5nccs5)c(Cl)c4)c3c2)=N1 [Varlitinib]" measuredvalue=2.18
molecule="Nc1nc2cc(-c3ccc4ncc(C(=O)N5CCOCC5)n4c3)ccc2o1 [Serabelisib (INK-1117,MLN-1117,TAK-117)]" measuredvalue=0.8
molecule=CC(C)(CCCCCC(O)CCCCCC(C)(C)C(=O)O)C(=O)O measuredvalue=0.55
molecule="CN1CC[C@H](c2c(O)cc(O)c3c(=O)cc(-c4ccccc4Cl)oc23)[C@H](O)C1 [Flavopiridol HCl]" measuredvalue=0.19

====

test system: LOC_OS02G07810-cb001; assay: thermal shift delta Tm vs DMSO control; higher = stronger stabilization (binding); details: 12.5 µM; protein concentration 2 µM
readoutLabel: thermal shift delta Tm (°C)

compound=CCn1nc(C2CCN(C(=O)CCO)CC2)nc1-c1cnc(N)c(-c2nnc(C(C)(C)C)o2)n1 readoutlabel="thermal shift delta Tm" measuredvalue=1.55
compound=CN(C)CCCn1cc(C2=C(c3c[nH]c4ccccc34)C(=O)NC2=O)c2ccccc21 readoutlabel="thermal shift delta Tm" measuredvalue=0.35
compound=Cn1cc(C2=C(c3ccc(Cl)cc3Cl)C(=O)NC2=O)c2ccccc21 readoutlabel="thermal shift delta Tm" measuredvalue=1.24
compound=CCn1c2ccccc2c2cc(Nc3ccnc(NCCCN4CCOCC4)n3)ccc21 readoutlabel="thermal shift delta Tm" measuredvalue=0.54
compound="CCOc1cc2ncc(C#N)c(Nc3ccc(OCc4ccccn4)c(Cl)c3)c2cc1NC(=O)/C=C/CN(C)C [Neratinib (HKI-272)]" readoutlabel="thermal shift delta Tm" measuredvalue=0.52

====

# thermal shift delta Tm per record follows
test system: LOC_OS03G12390-cb001; assay: thermal shift delta Tm vs DMSO control; higher = stronger stabilization (binding); settings: 12.5 µM; protein concentration 2 µM
readoutLabel: thermal shift delta Tm (°C)

compound=O=C(Nc1c[nH]nc1-c1nc2ccc(CN3CCOCC3)cc2[nH]1)NC1CC1 assaytarget=LOC_OS03G12390-cb001 unitslabel=°C measuredvalue=7.72
compound=CCn1c(=O)c(-c2ccc(-c3cncs3)cc2Cl)cc2cnc(Nc3ccc(N4CCN(C)CC4)cc3)nc21 assaytarget=LOC_OS03G12390-cb001 unitslabel=°C measuredvalue=-0.41
compound="O=C(NOCC(O)CO)c1cc(Br)c(F)c(F)c1Nc1ccc(I)cc1F (centres undefined)" assaytarget=LOC_OS03G12390-cb001 unitslabel=°C measuredvalue=0.93
compound="Cc1ccc(-n2nc(C(C)(C)C)cc2NC(=O)Nc2ccc(OCCN3CCOCC3)c3ccccc23)cc1 [Doramapimod (BIRB 796)]" assaytarget=LOC_OS03G12390-cb001 unitslabel=°C measuredvalue=-0.03
compound=O=C(Nc1cccnc1)c1cc(-c2ccnc(F)c2)ccc1OCc1ccccc1 assaytarget=LOC_OS03G12390-cb001 unitslabel=°C measuredvalue=4.48
compound=OCCn1cc(-c2cnc3nnn(Cc4ccc5ncccc5c4)c3n2)cn1 assaytarget=LOC_OS03G12390-cb001 unitslabel=°C measuredvalue=-0.07
compound=C=CC(=O)Nc1cccc(Nc2nc(Nc3ccc(NC4CN(CCF)C4)cc3OC)ncc2C(F)(F)F)c1 assaytarget=LOC_OS03G12390-cb001 unitslabel=°C measuredvalue=8.48
compound=CCN1C(=O)CNc2ncc(-c3ccc(-c4nc[nH]n4)nc3C)nc21 assaytarget=LOC_OS03G12390-cb001 unitslabel=°C measuredvalue=-0.17
compound="O=c1c(O)c(-c2ccc(O)c(O)c2)oc2cc(O)cc(O)c12 [Quercetin]" assaytarget=LOC_OS03G12390-cb001 unitslabel=°C measuredvalue=5.69

====

test system: LOC_OS02G08530-cb003; assay: thermal shift delta Tm vs DMSO control; higher = stronger stabilization (binding); details: 12.5 µM; protein concentration 2 µM
readoutLabel: thermal shift delta Tm (°C)

smilesstr=CNCc1ccc(-c2cc(-c3nc(-c4ccc(S(=O)(=O)C(C)C)cc4)cnc3N)on2)cc1 readoutlabel="thermal shift delta Tm" measuredvalue=1.56
smilesstr=COc1cc(C(=O)N2CCC(N3CCN(C)CC3)CC2)ccc1Nc1ncc2c(n1)N(C)c1ccccc1C(=O)N2C readoutlabel="thermal shift delta Tm" measuredvalue=1.92
smilesstr=NC(=O)Nc1cc(-c2cccc(F)c2)sc1C(=O)N[C@H]1CCCNC1 readoutlabel="thermal shift delta Tm" measuredvalue=5.46
smilesstr=C[C@@H](N)c1ccc(C(=O)Nc2ccnc3[nH]ccc23)cc1 readoutlabel="thermal shift delta Tm" measuredvalue=0.76
smilesstr=COc1ccc(CCNCc2ccc(OCc3ccc(Cl)nc3)c(OC)c2)cc1OC readoutlabel="thermal shift delta Tm" measuredvalue=0.56
smilesstr=Clc1ccc(C2(c3ccc(-c4cn[nH]c4)cc3)CCNCC2)cc1 readoutlabel="thermal shift delta Tm" measuredvalue=0.59
smilesstr=CNS(=O)(=O)C[C@H]1CC[C@H](N(C)c2[nH]cnc3nccc2-3)CC1 readoutlabel="thermal shift delta Tm" measuredvalue=2.49
smilesstr=CCCCOc1c(C(=O)c2c(F)cc(C)cc2F)c[nH]c2nncc1-2 readoutlabel="thermal shift delta Tm" measuredvalue=0.56
smilesstr=Cc1ccc(CNc2ncnc3ccc(-c4ccc(CO)o4)cc23)o1 readoutlabel="thermal shift delta Tm" measuredvalue=1.61
smilesstr=C#Cc1cccc(Nc2ncnc3cc(OCCOC)c(OCCOC)cc23)c1 readoutlabel="thermal shift delta Tm" measuredvalue=0.9
